Below: molecules with pIC50 recorded for Prothrombin (Homo sapiens) in separate published works.
pIC50: −log10 of the molar value.

> print(dat)
                                   molecule  value.measured
1  CN1CCC(COc2cc(CNc3cccc4c(N)nccc34)cc(C(F)(F)F)n2)CC1          < 4.40
2  CN1CCc2ccc(N3CCc4c(C(=O)NCC5CCOCC5)nn(-c5cccc(Cl)c5)c4C3=O)cc2C1          < 4.00
3      CN1CCC(CNc2ccc(CNc3ccnc(N)c3)cn2)CC1    4.40 to 5.00
4  Cc1cn2c(n1)CC(COc1cc(CNc3cccc4c(N)nccc34)ccn1)CC2 (single isomer, unassigned)          < 4.40
5  CN1CCC(CNc2ccc(CNc3ccnc4[nH]ccc34)cn2)CC1          < 4.40

Can you look up pIC50 on Prothrombin (Homo sapiens) for "CN1CCC(COc2cc(CNc3ccc4c(N)nccc4c3)cc(C(F)(F)F)n2)CC1" ? 6.00 to 6.52

Request body: readout pIC50, system Prothrombin (Homo sapiens), query "Nc1nccc2c(NCC34CC(COc5ccc6nnc(C(F)F)n6c5)(CO3)C4)cccc12" . Return the value. < 4.40

What value of pIC50 on Prothrombin (Homo sapiens) does "CN1CCC(COc2cc(CNc3ccc4c(N)nccc4c3)ccn2)CC1" have? 5.00 to 5.52

###

Listing of IC50 toward Prothrombin (Homo sapiens, UniProt P00734), each taken from a published source.

Sample records with IC50:
> print(dat)
                                   compound  parameter  value.measured
1  Nc1nccc2c(NC[C@H]3C[C@H](COc4ccn5ccnc5c4)C3)cccc12       IC50         > 40 µM
2  CN1CCN(CCc2ccc(CNc3cccc4c(N)nccc34)c(F)c2)CC1       IC50         > 40 µM
3  CN1CCc2ccc(N3CCc4c(C(=O)NCC5CC5)nn(-c5cccc(CN)c5)c4C3=O)cc2C1=O       IC50     10 to 40 µM
4  Cc1cc2c(NCC34CC(COc5ccn6ccnc6c5)(CO3)C4)ccnc2[nH]1       IC50     10 to 40 µM
5  CC(C)N1CCc2ccc(N3CCc4c(C(=O)NCC5CC5)nn(-c5cccc(Cl)c5)c4C3=O)cc2C1       IC50        > 100 µM

Sample "CC(C)N1CCC(COc2ccc(CNc3ccc4c(N)nccc4c3)cn2)CC1" — what was its IC50? 3 to 10 µM

Endpoint output: IC50 of "CN1CCC(COc2ccc(CNc3cccc4c(N)nccc34)cn2)CC1" . Value? > 40 µM

Entry "Cn1ccnc1CCOc1cc(CNc2ccc3c(N)nccc3c2)ccn1" has what IC50? 1 to 3 µM

Suppose we examine the compound "CN1CCC(Oc2cc(CNc3ccc4c(N)nccc4c3)ccn2)CC1" ; what IC50 value has been reported? 1 to 3 µM

Need IC50, item CC(=O)N1CC2CC1CC2COc1cc(CNc2cccc3c(N)nccc23)ccn1 (centres unmarked) 10 to 40 µM

Dear colleague, I am looking for the recorded IC50 of the following compound: "Nc1nccc2c(NCc3ccc(N4CCn5c(nnc5C(F)F)C4)nc3)cccc12" 10 to 40 µM
